assay: Stability in simulated gastric fluid assessed as half life; type: physicochemical
readout-kind: half-life

QUERY: So what's the measured half-life for this one? CNC(=O)C1CN(C(=O)c2onc3ccccc23)CC12CCN(C(=O)c1noc3ccccc13)CC2 (stereo unspecified)
RESULT: > 50 h

###

assay: Stability in simulated intestinal fluid assessed as half life; type: physicochemical
readout-kind: half-life

QUERY: Dear colleague, I am looking for the recorded half-life of the following compound: CNC(=O)C1CN(C(=O)c2onc3ccccc23)CC12CCN(C(=O)c1noc3ccccc13)CC2 (stereo unspecified)
RESULT: > 300 min

Sourced from ChEMBL document CHEMBL6134822
